- Test system: SR leukemia
- Protocol Notes: NCI tumour cell line growth inhibition, 48 h; in the data active means GI50 below about 0.43 µM; inactive means the rest
Outcome codes: active, inactive

{"Compound": "Cc1cc(Cl)nc(N(CCCNc2ccnc3cc(Cl)ccc23)Cc2ccco2)n1", "Assay System": "SR leukemia", "Label Value": "inactive"}
{"Compound": "CO[C@H]1C[C@@H]2CC[C@@H](C)[C@@](O)(O2)C(=O)C(=O)N2CCCC[C@H]2C(=O)O[C@H]([C@H](C)C[C@@H]2CC[C@@H](OCCO)[C@H](OC)C2)CC(=O)[C@H](C)C=C(C)[C@@H](O)[C@@H](OC)C(=O)[C@H](C)C[C@H](C)/C=C/C=C/C=C1C", "Assay System": "SR leukemia", "Label Value": "active"}
{"Compound": "O=C(Nc1nc2ccccc2s1)Nc1ccc([N+](=O)[O-])cc1Cl", "Assay System": "SR leukemia", "Label Value": "inactive"}
{"Compound": "O=C1Cc2cc(C(=O)NC3C[C@H]4CC[C@@H](C3)N4S(=O)(=O)CC3CCN(CCCC(F)(F)F)CC3)c(Cl)cc2N1 (some centres undefined)", "Assay System": "SR leukemia", "Label Value": "inactive"}
{"Compound": "COc1ccc2c(OCc3nnc4ccc(-c5ccccc5)nn34)ccnc2c1", "Assay System": "SR leukemia", "Label Value": "inactive"}
{"Compound": "COc1cc2cc(Oc3ccc(NC(=O)Nc4ccc(Cl)c(Cl)c4)cc3)c(C)nc2cc1OC", "Assay System": "SR leukemia", "Label Value": "inactive"}
{"Compound": "CSc1ccc2c(c1)C(N1CCN(C)CC1)Cc1ccccc1S2 (centres undefined)", "Assay System": "SR leukemia", "Label Value": "inactive"}
{"Compound": "O=C(COc1cccc(/C=C2\\CSc3ccccc3C2=O)c1)Nc1nccs1", "Assay System": "SR leukemia", "Label Value": "inactive"}
{"Compound": "CC(=O)[O][Hg][c]1c(C)c(C)cc(C)c1C", "Assay System": "SR leukemia", "Label Value": "active"}

---

- System: NCI-H460 lung
- Protocol Notes: NCI tumour cell line growth inhibition, 48 h

{"Molecule": "COc1cc(-c2nn(-c3cccc(NC(=O)c4ccc(Cl)c(C(F)(F)F)c4)c3)cc2-c2ccncc2)ccc1Cl", "TGI": "> 32.5 µM"}
{"Molecule": "Nc1ncnc2c1ncn2C1CC(OCc2ccccc2[N+](=O)[O-])C(CO)O1 (stereo not drawn)", "TGI": "> 50 µM"}
{"Molecule": "C[N+]1(CCN[N+]2(C)CCCCC2)CCc2ccccc2C1 (stereo not drawn)", "TGI": "> 100 µM"}
{"Molecule": "CC1(c2ccc(Cl)cc2)C2C(=O)NC(=O)C1C(=O)NC2=O (stereo not drawn)", "TGI": "> 100 µM"}
{"Molecule": "Cc1ccc(NC(=O)C(=O)CC(=O)c2sc(Nc3c(C)cccc3C)nc2C)cc1C", "TGI": "> 100 µM"}
{"Molecule": "CC(=O)[CH-]C(=O)c1ccccc1.CC(=O)[CH-]C(=O)c1ccccc1.C[C@]12CCC(=O)C=C1CC[C@@H]1C2CC[C@@]2(C)C1CC[C@]2(C)[O-].C[C@]12CCC(=O)C=C1CC[C@@H]1C2CC[C@@]2(C)C1CC[C@]2(C)[O-].Cl.[Ti+4] (stereo partly drawn)", "TGI": "49.9 µM"}
{"Molecule": "NC(Cc1ccc(S(=O)(=O)O)cc1)C(=O)NC(Cc1ccc(S(=O)(=O)O)cc1)C(=O)O (stereo not drawn)", "TGI": "> 100 µM"}
{"Molecule": "Cc1ccccc1NC(=O)Cc1csc2[n+]1C(=O)/C(=C/c1ccc([N+](=O)[O-])cc1)S2", "TGI": "88 µM"}

---

Below, each entry is listed with its recorded TGI.
- System: OVCAR-8 ovarian
- Protocol Notes: NCI tumour cell line growth inhibition, 48 h

{"Compound": "CC1CC(=O)N(N(C)C)C(C#N)(C#N)C1(C#N)C#N (configuration not stated)", "Assay System": "OVCAR-8 ovarian", "TGI": "45.2 µM"}
{"Compound": "C=CC(=O)N1CC2(CC(n3nc(-c4ccc5c(cnn5C)c4)c(-c4c(Cl)c(C)cc5[nH]ncc45)c3C)C2)C1", "Assay System": "OVCAR-8 ovarian", "TGI": "4.84 µM"}
{"Compound": "CC(C)C1N(C)c2ccc(Cl)cc2[C@H]2c3ccccc3CCN12 (some centres not stated)", "Assay System": "OVCAR-8 ovarian", "TGI": "> 100 µM"}
{"Compound": "COc1ccc(/C=N/n2cnc3[nH]c(C)c(Cc4ccccc4)c3c2=N)cc1", "Assay System": "OVCAR-8 ovarian", "TGI": "> 100 µM"}
{"Compound": "COc1cc(-c2nn(-c3cccc(NC(=O)c4ccc(Cl)c(C(F)(F)F)c4)c3)cc2-c2ccncc2)ccc1Cl", "Assay System": "OVCAR-8 ovarian", "TGI": "> 32.5 µM"}
{"Compound": "O=C(CCc1ccccc1)On1c(-c2ccccc2)nc2ccccc2c1=S", "Assay System": "OVCAR-8 ovarian", "TGI": "64.6 µM"}
{"Compound": "CCCC(CCN)(CCN)[N+](=O)[O-]", "Assay System": "OVCAR-8 ovarian", "TGI": "> 100 µM"}
{"Compound": "Cn1c(-c2c(N)n(CCCN3CCOCC3)c3nc(C#N)c(C#N)nc23)nc2ccccc21", "Assay System": "OVCAR-8 ovarian", "TGI": "> 100 µM"}
{"Compound": "O=c1[nH]cnc2c1nnn2CCCCCCCCCCCCn1nnc2c(=O)[nH]cnc21", "Assay System": "OVCAR-8 ovarian", "TGI": "> 86.8 µM"}
{"Compound": "CCOC(=O)c1cnc2c(C)cccc2c1Nc1ccc(C(C)=O)cc1", "Assay System": "OVCAR-8 ovarian", "TGI": "> 100 µM"}
{"Compound": "COc1ccc(C(C2=C(O)COC2=O)c2cc3c(cc2O)OCO3)cc1OC (configuration not stated)", "Assay System": "OVCAR-8 ovarian", "TGI": "> 100 µM"}
{"Compound": "Cc1ccccc1NC(=O)Cc1csc2[n+]1C(=O)/C(=C/c1ccc([N+](=O)[O-])cc1)S2", "Assay System": "OVCAR-8 ovarian", "TGI": "> 100 µM"}
{"Compound": "CN1c2ccccc2N(C(=O)c2ccccc2)C(CC(=O)O)c2cccn21 (configuration not stated)", "Assay System": "OVCAR-8 ovarian", "TGI": "> 100 µM"}
{"Compound": "CCOC(=O)C1(C)CCCCC(=O)N1 (configuration not stated)", "Assay System": "OVCAR-8 ovarian", "TGI": "> 100 µM"}
{"Compound": "Cc1ccc2c(c1)C(=O)C(C1OC(=O)c3ccccc31)C2 (configuration not stated)", "Assay System": "OVCAR-8 ovarian", "TGI": "> 100 µM"}
{"Compound": "O=C1Cc2cc(C(=O)NC3C[C@H]4CC[C@@H](C3)N4S(=O)(=O)CC3CCN(CCCC(F)(F)F)CC3)c(Cl)cc2N1 (some centres not stated)", "Assay System": "OVCAR-8 ovarian", "TGI": "> 100 µM"}
{"Compound": "CC(C)(C)OC(=O)NCCCCC(NC(=O)c1ccccc1)C(N)=O (configuration not stated)", "Assay System": "OVCAR-8 ovarian", "TGI": "> 100 µM"}
{"Compound": "CCCCCCC[CH2][Sn]1([CH2]CCCCCCC)[O]C(=O)c2cccnc2[O]1", "Assay System": "OVCAR-8 ovarian", "TGI": "> 100 µM"}
{"Compound": "C/C1=C\\C=C(\\C(C)C)CC/C(C(=O)O)=C\\CC/C(C)=C/CC1", "Assay System": "OVCAR-8 ovarian", "TGI": "> 100 µM"}
{"Compound": "Cc1ccc(NC(=O)C(=O)CC(=O)c2sc(Nc3c(C)cccc3C)nc2C)cc1C", "Assay System": "OVCAR-8 ovarian", "TGI": "> 100 µM"}
{"Compound": "S=C(Nc1ccc2cn[nH]c2c1)Nc1ccc2cn[nH]c2c1", "Assay System": "OVCAR-8 ovarian", "TGI": "> 100 µM"}
{"Compound": "COc1cc2nc(-c3cccs3)[nH]c(=O)c2cc1OC", "Assay System": "OVCAR-8 ovarian", "TGI": "> 100 µM"}
{"Compound": "O=S(=O)(c1cnccc1N1CCN(CCO)CC1)N1CCCC1", "Assay System": "OVCAR-8 ovarian", "TGI": "> 100 µM"}
{"Compound": "CCOC(=O)Cc1nc2c(N)ncnc2n1C1OC(COC(C)=O)C(OC(C)=O)C1OC(C)=O (configuration not stated)", "Assay System": "OVCAR-8 ovarian", "TGI": "> 100 µM"}
{"Compound": "Cc1nc2c(=S)n(C)ncc2[nH]1", "Assay System": "OVCAR-8 ovarian", "TGI": "> 100 µM"}
{"Compound": "COC(=O)CSSCc1ccc([N+](=O)[O-])cc1", "Assay System": "OVCAR-8 ovarian", "TGI": "82.1 µM"}
{"Compound": "C=C1C(=O)OC2/C=C(/C)C(OC(C)=O)C/C=C(\\C)C(OC(=O)C3(C)OC3C)C(O)C12 (configuration not stated)", "Assay System": "OVCAR-8 ovarian", "TGI": "> 100 µM"}
{"Compound": "CC(=O)c1c(C)[nH]c(-c2nc3ccc(N4CCN(C)CC4)cc3[nH]2)c1-c1ccccc1", "Assay System": "OVCAR-8 ovarian", "TGI": "> 100 µM"}
{"Compound": "O=C(COc1cccc(/C=C2\\CSc3ccccc3C2=O)c1)Nc1nccs1", "Assay System": "OVCAR-8 ovarian", "TGI": "10.4 µM"}
{"Compound": "CC(=N\\N)/C(C)=N/N=C(C)/C(C)=N/N=C(C)/C(C)=N/N", "Assay System": "OVCAR-8 ovarian", "TGI": "> 100 µM"}
{"Compound": "COC(=O)c1ccc(NC(=O)Oc2ccc(N(CCCl)CCCl)cc2)cc1", "Assay System": "OVCAR-8 ovarian", "TGI": "84.6 µM"}
{"Compound": "CN(c1ccccc1)c1c(Cl)c(=O)oc2c1ccc1occc12", "Assay System": "OVCAR-8 ovarian", "TGI": "> 100 µM"}
{"Compound": "CN(Cc1cnc2nc(N)nc(N)c2n1)c1ccc(C(=O)NC(CCC(=O)O)C(=O)O)cc1Br (configuration not stated)", "Assay System": "OVCAR-8 ovarian", "TGI": "> 100 µM"}
{"Compound": "COc1cc(N(Cc2ccc3oc(=O)c(-c4ccccc4)nc3c2)Cc2ccc3oc(=O)c(-c4ccccc4)nc3c2)cc(OC)c1OC", "Assay System": "OVCAR-8 ovarian", "TGI": "> 10 µM"}
{"Compound": "COc1cc2c(=O)[nH]c3cc([N+](=O)[O-])ccc3c2cc1[N+](=O)[O-]", "Assay System": "OVCAR-8 ovarian", "TGI": "88.1 µM"}
{"Compound": "CCOC(=O)N(c1ccccc1)N(CC)C(=O)/C(C)=N/Nc1ccc([N+](=O)[O-])cc1", "Assay System": "OVCAR-8 ovarian", "TGI": "32.6 µM"}
{"Compound": "COc1cc2cc(Oc3ccc(NC(=O)Nc4ccc(Cl)c(Cl)c4)cc3)c(C)nc2cc1OC", "Assay System": "OVCAR-8 ovarian", "TGI": "12.9 µM"}
{"Compound": "COc1cc(CCc2ccc(N)cc2)cc(OC)c1OC", "Assay System": "OVCAR-8 ovarian", "TGI": "> 100 µM"}
{"Compound": "COc1ccc(-n2sc3ncccc3c2=O)cc1", "Assay System": "OVCAR-8 ovarian", "TGI": "70.3 µM"}
{"Compound": "Cc1cc(N2CCN(C)CC2)n2nc(-c3ccc(Cl)cc3)nc2n1", "Assay System": "OVCAR-8 ovarian", "TGI": "> 100 µM"}
{"Compound": "COC(=O)C=Cc1ccc2nncnc2c1 (mixture of isomers)", "Assay System": "OVCAR-8 ovarian", "TGI": "> 100 µM"}
{"Compound": "COC(=O)c1ccc(Nc2nc3nc[nH]c3c(=O)[nH]2)cc1", "Assay System": "OVCAR-8 ovarian", "TGI": "> 100 µM"}
